test system: ACHN; assay: minimum viability across doses, drug + dasatinib, relative to DMSO (fraction); higher = less growth inhibition; details: treatment: drug + dasatinib (fixed dose, not stated); 5 days
Each entry below lists one item and its recorded minimum viability across doses value.

{"Molecule": "COc1ccc2cc(-c3[nH]c(-c4ccc(S(C)=O)cc4)nc3-c3ccncc3)ccc2c1 (stereo not drawn) [Tie2 kinase inhibitor] + Cc1nc(Nc2ncc(C(=O)Nc3c(C)cccc3Cl)s2)cc(N2CCN(CCO)CC2)n1", "minimum viability across doses": 0.521}
{"Molecule": "CS(=O)c1ccc(-c2nc(-c3ccc(F)cc3)c(-c3ccncc3)[nH]2)cc1 (stereo not drawn) + Cc1nc(Nc2ncc(C(=O)Nc3c(C)cccc3Cl)s2)cc(N2CCN(CCO)CC2)n1", "minimum viability across doses": 0.434}
{"Molecule": "O=C1NC(=O)[C@@H](c2cn3c4c(cccc24)CCC3)[C@@H]1c1c[nH]c2ccccc12 [ARQ 197 (Tivantinib)] + Cc1nc(Nc2ncc(C(=O)Nc3c(C)cccc3Cl)s2)cc(N2CCN(CCO)CC2)n1", "minimum viability across doses": 0.147}
{"Molecule": "CN(c1ncccc1CNc1nc(Nc2ccc3c(c2)CC(=O)N3)ncc1C(F)(F)F)S(C)(=O)=O.O=S(=O)(O)c1ccccc1 + Cc1nc(Nc2ncc(C(=O)Nc3c(C)cccc3Cl)s2)cc(N2CCN(CCO)CC2)n1", "minimum viability across doses": 0.0114}
{"Molecule": "COc1ccc(-c2ccc3c(N4CCOC[C@@H]4C)nc(N4CCOC[C@@H]4C)nc3n2)cc1CO [AZD8055] + Cc1nc(Nc2ncc(C(=O)Nc3c(C)cccc3Cl)s2)cc(N2CCN(CCO)CC2)n1", "minimum viability across doses": 0.044}
{"Molecule": "Cc1ccc(NC(=O)c2ccc(CN3CCN(C)CC3)cc2)cc1Nc1nc(-c2cccnc2)cs1 [Masitinib (AB1010)] + Cc1nc(Nc2ncc(C(=O)Nc3c(C)cccc3Cl)s2)cc(N2CCN(CCO)CC2)n1", "minimum viability across doses": 0.263}
{"Molecule": "CO[C@H]1C[C@@H]2CC[C@@H](C)[C@@](O)(O2)C(=O)C(=O)N2CCCC[C@H]2C(=O)O[C@H]([C@H](C)C[C@@H]2CC[C@@H](O)[C@H](OC)C2)CC(=O)[C@H](C)/C=C(\\C)[C@@H](O)[C@@H](OC)C(=O)[C@H](C)C[C@H](C)/C=C/C=C/C=C/1C [Rapamycin (Sirolimus)] + Cc1nc(Nc2ncc(C(=O)Nc3c(C)cccc3Cl)s2)cc(N2CCN(CCO)CC2)n1", "minimum viability across doses": 0.247}
{"Molecule": "CN(C)C/C=C/C(=O)Nc1cc2c(Nc3ccc(F)c(Cl)c3)ncnc2cc1O[C@H]1CCOC1 [Afatinib (BIBW2992)] + Cc1nc(Nc2ncc(C(=O)Nc3c(C)cccc3Cl)s2)cc(N2CCN(CCO)CC2)n1", "minimum viability across doses": 0.00184}

----------
Each entry below lists one item and its recorded AUC of dose-response viability curve value.
system: A498; assay: AUC of dose-response viability curve, drug + dasatinib, normalised to DMSO (arbitrary (AUC of normalised viability)); higher = less growth inhibition; conditions: treatment: drug + dasatinib (fixed dose, not stated); 5 days

{"Compound": "C=CC(=O)Nc1ccc2ncnc(Nc3ccc(OCc4cccc(F)c4)c(Cl)c3)c2c1.Cc1ccc(S(=O)(=O)O)cc1 [AST-1306] + Cc1nc(Nc2ncc(C(=O)Nc3c(C)cccc3Cl)s2)cc(N2CCN(CCO)CC2)n1", "AUC of dose-response viability curve": 3.44}
{"Compound": "Nc1ncnc2c1c(-c1cnc3[nH]ccc3c1)nn2C1CCCC1 [PP-121] + Cc1nc(Nc2ncc(C(=O)Nc3c(C)cccc3Cl)s2)cc(N2CCN(CCO)CC2)n1", "AUC of dose-response viability curve": 2.5}
{"Compound": "COC[C@H]1OC(=O)c2coc3c2[C@@]1(C)C1=C(C3=O)[C@@H]2CCC(=O)[C@@]2(C)C[C@@H]1OC(C)=O [Wortmannin] + Cc1nc(Nc2ncc(C(=O)Nc3c(C)cccc3Cl)s2)cc(N2CCN(CCO)CC2)n1", "AUC of dose-response viability curve": 2.76}
{"Compound": "O=C1CCC(N2C(=O)c3ccccc3C2=O)C(=O)N1 (centres undefined) [Thalidomide] + Cc1nc(Nc2ncc(C(=O)Nc3c(C)cccc3Cl)s2)cc(N2CCN(CCO)CC2)n1", "AUC of dose-response viability curve": 3.94}

Hey, just so you know, these numbers are from the supplement of paper PMC8149375.
